Target: T1, human CEACAM5 (human, UniProt P06731 35-685)
T1 construct: whole, on cells; Target on MKN-45 (DSMZ ACC409) and LS180 (ATCC CL-187) cells; also called carcinoembryonic antigen-related cell adhesion molecule 5; CD66e
T1 sequence (looked up): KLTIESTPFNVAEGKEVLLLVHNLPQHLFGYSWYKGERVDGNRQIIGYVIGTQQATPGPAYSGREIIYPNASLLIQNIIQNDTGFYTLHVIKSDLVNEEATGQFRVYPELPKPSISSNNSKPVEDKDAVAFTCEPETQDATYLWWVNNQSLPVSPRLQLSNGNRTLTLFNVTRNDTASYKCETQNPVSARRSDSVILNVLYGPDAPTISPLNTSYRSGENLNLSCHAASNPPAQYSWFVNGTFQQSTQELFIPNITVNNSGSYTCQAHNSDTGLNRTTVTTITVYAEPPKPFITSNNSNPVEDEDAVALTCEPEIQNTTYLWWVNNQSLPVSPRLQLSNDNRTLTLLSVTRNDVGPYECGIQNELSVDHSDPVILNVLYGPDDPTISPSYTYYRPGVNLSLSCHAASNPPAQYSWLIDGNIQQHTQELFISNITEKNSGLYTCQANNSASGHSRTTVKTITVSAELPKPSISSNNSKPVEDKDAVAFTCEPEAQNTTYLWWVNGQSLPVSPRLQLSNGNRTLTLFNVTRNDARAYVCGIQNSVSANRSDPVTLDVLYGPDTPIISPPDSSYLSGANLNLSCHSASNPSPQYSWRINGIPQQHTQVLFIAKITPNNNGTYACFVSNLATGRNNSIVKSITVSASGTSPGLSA
Assay: FACS on MKN-45 cells expressing human CEACAM5
Protocol: The cellular binding assay was performed as follows. 10 μl of a 1×10⁴ MKN-45 (DSMZ ACC409) cell suspension in assay buffer was seeded in all Wells of a 384 well polypropylene plate (Weidmann #23490-101). Then 10 μl of antibodies diluted in assay buffer (double concentrated), at a start concentration of 100 μg/ml, serially diluted 1:4 were added to the plate. […] Cell binding was measured on an iQue Screener Plus high throughput FACS device from Sartorius/Intellicyt.
# EC50 per entry
parameter: EC50 (nM)

[[record]]
binder = "P1AH2359 (antibody, human IgG1, name in Kabat numbering, V domains shown) VH: QVQLVQSGAEVKKPGSSVKVSCKASGFNIKDTYMHWVRQAPGQGLEWMGRIDPANGNSKYVPKFQGRVTITADTSTSTAYMQLSSLRSEDTAVYYCAPFGYYVSDYAMAYWGQGTLVTVSS VL: EIVLTQSPATLSLSPGERATLSCRAGESVDIFGVGFLHWYQQKPGQAPRLLIYRASNRATGIPARFSGSGSGTDFTLTISSLEPEDFAVYYCQQTNEDPYTFGQGTKLEIK"
unit_abbrev = "nM"
readout_number = 12.9

[[record]]
binder = "P1AH2373 (antibody, human IgG1, name in Kabat numbering, V domains shown) VH: QVQLVQSGAEVKKPGSSVKVSCKASGFNIKDTYMHWVRQAPGQGLEWMGRIDPANGNSKYVPKFQGRVTITADTSTSTAYMELSSLRSEDTAVYYCAPFGYYVSDYAMAYWGQGTLVTVSS VL: EIVLTQSPATLSLSPGERATLSCRAGESVDIFGVGFLHWYQQKPGQAPRLLIYRASNRATGIPARFSGSGSGTDFTLTISSLEPEDFAVYYCQQTNENPYTFGQGTKLEIK"
unit_abbrev = "nM"
readout_number = 2.5

[[record]]
binder = "P1AH2354 (antibody, human IgG1, name in Kabat numbering, V domains shown, Kabat positions) VH: QVQLVQSGAEVKKPGSSVKVSCKASGFNIKDTYMHWVRQAPGQGLEWMGRIDPANGNSKYVPKFQGRVTITADTSTSTAYMELSSLRSEDTAVYYCASFGYYVSDYAMAYWGQGTLVTVSS VL: EIVLTQSPATLSLSPGERATLSCRAGESVDIFGVGFLHWYQQKPGQAPRLLIYRASNRATGIPARFSGSGSGTDFTLTISSLEPEDFAVYYCQQTNEDPYTFGQGTKLEIK"
unit_abbrev = "nM"
readout_number = 20.4

[[record]]
binder = "T84.66-LCHA (P1AH2338) (antibody, V domains shown, also called humanized variant 1) VH: QVQLVQSGAEVKKPGSSVKVSCKASGFNIKDTYMHWVRQAPGQGLEWMGRIDPANGNSKYVPKFQGRVTITADTSTSTAYMELSSLRSEDTAVYYCAPFGYYVSDYAMAYWGQGTLVTVSS VL: EIVLTQSPATLSLSPGERATLSCRAGESVDIFGVGFLHWYQQKPGQAPRLLIYRASNRATGIPARFSGSGSGTDFTLTISSLEPEDFAVYYCQQTNEDPYTFGQGTKLEIK"
unit_abbrev = "nM"
readout_number = 5.3

[[record]]
binder = "P1AH2361 (antibody, human IgG1, name in Kabat numbering, V domains shown) VH: QVQLVQSGAEVKKPGSSVKVSCKASGFNITDTYMHWVRQAPGQGLEWMGRIDPANGNSKYVPKFQGRVTITADTSTSTAYMELSSLRSEDTAVYYCAPFGYYVSDYAMAYWGQGTLVTVSS VL: EIVLTQSPATLSLSPGERATLSCRAGESVDIFGVGFLHWYQQKPGQAPRLLIYRASNRATGIPARFSGSGSGTDFTLTISSLEPEDFAVYYCQQTNEDPYTFGQGTKLEIK"
unit_abbrev = "nM"
readout_number = 21.9

[[record]]
binder = "P1AH2366 (antibody, human IgG1, name in Kabat numbering, V domains shown, Kabat positions) VH: QVQLVQSGAEVKKPGSSVKVSCKASGFNIKDTYMHWVRQAPGQGLEWMGRIDPANGNSKYVPKFQGRVTITADTSTSTAYMELSSLRSEDTAVYYCAPFGYYVSDYAMAYWGQGTLVTVSS VL: EIVLTQSPATLSLSPGERATLSCRAGESVDIYGVGFLHWYQQKPGQAPRLLIYRASNRATGIPARFSGSGSGTDFTLTISSLEPEDFAVYYCQQTNEDPYTFGQGTKLEIK"
unit_abbrev = "nM"
readout_number = 2.7

[[record]]
binder = "P1AH2364 (antibody, human IgG1, name in Kabat numbering, V domains shown) VH: QVQLVQSGAEVKKPGSSVKVSCKASGFNIKDTYMHWVRQAPGQGLEWMGRIDPANGNSKYVPKFQGRVTITADTSTSTAYMELSSLRSEDTAVYYCAPFGYYVSDYAMAYWGQGTLVTVSS VL: EIVLTQSPATLSLSPGERATLSCRAGESVDIFGVGFLHWYQQKPGQAPRLLIYRGSNRATGIPARFSGSGSGTDFTLTISSLEPEDFAVYYCQQTNEDPYTFGQGTKLEIK"
unit_abbrev = "nM"
readout_number = 1.9

[[record]]
binder = "P1AH2368 (antibody, V domains shown) VH: QVQLVQSGAEVKKPGSSVKVSCKASGFNIKDTYMHWVRQAPGQGLEWMGRIDPANGNSKYVPKFQGRVTITADTSTSTAYMELSSLRSEDTAVYYCAPFGYYVSDYAMAYWGQGTLVTVSS VL: EIVLTQSPATLSLSPGERATLSCRAGESVDSYGVGFLHWYQQKPGQAPRLLIYRASNRATGIPARFSGSGSGTDFTLTISSLEPEDFAVYYCQQTNEDPYTFGQGTKLEIK"
unit_abbrev = "nM"
readout_number = 2.5

[[record]]
binder = "P1AH2370 (antibody, human IgG1, name in Kabat numbering, V domains shown) VH: QVQLVQSGAEVKKPGSSVKVSCKASGFNIKDTYMHWVRQAPGQGLEWMGRIDPANGNSKYVPKFQGRVTITADTSTSTAYMELSSLRSEDTAVYYCAPFGYYVSDYAMAYWGQGTLVTVSS VL: EIVLTQSPATLSLSPGERATLSCRAGESVSIFGVGFLHWYQQKPGQAPRLLIYRASNRATGIPARFSGSGSGTDFTLTISSLEPEDFAVYYCQQTNEDPYTFGQGTKLEIK"
unit_abbrev = "nM"
readout_number = 3.1

[[record]]
binder = "P1AH2352 (antibody, human IgG1, name in Kabat numbering, V domains shown, Kabat positions) VH: QVQLVQSGAEVKKPGSSVKVSCKASGFNIKDTYMHWVRQAPGQGLEWMGRIDPANGNSKYVPKFQGRVTITADTSTSTAYMELSSLRSEDTAVYYCATFGYYVSDYAMAYWGQGTLVTVSS VL: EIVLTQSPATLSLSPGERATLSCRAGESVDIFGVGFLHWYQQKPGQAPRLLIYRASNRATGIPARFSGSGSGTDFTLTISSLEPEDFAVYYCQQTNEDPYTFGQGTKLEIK"
unit_abbrev = "nM"
readout_number = 21.9

